# credit: PubChem BioAssay

- System: Hepatitis C virus NS3 helicase
- ASSAY_DETAILS: HCV NS3 helicase inhibitors, primary screen, biochemical, fluorescence polarization, NIH Clinical Collection (AID 743270)
- TEST_PARAMETERS: NS3 helicase binding to Cy5-dT15 DNA, hits give high values, concentration not given here
The source made the active and inactive calls. The rule behind the calls is not given here.
MEASURED_ENDPOINT: inhibition

1. CC(C[N+](C)(C)C)OC(N)=O (stereo not given)
-3.18% (inactive)
2. C[C@H](CCC(=O)O)[C@H]1CC[C@H]2[C@@H]3C(=O)C[C@@H]4CC(=O)CC[C@]4(C)[C@H]3CC(=O)[C@]12C
3.28% (inactive)
3. COc1cc2nc(N(C)CCCNC(=O)C3CCCO3)nc(N)c2cc1OC (stereo not given)
-1.98% (inactive)
4. CN(C)CCOC(c1ccc(Cl)cc1)c1ccccn1 (stereo not given)
-5% (inactive)
5. C[C@]12CCC(=O)C=C1CC[C@@H]1[C@@H]2[C@@H](O)C[C@@]2(C)[C@H]1CC[C@]2(O)C(=O)COC(=O)CCC(=O)O
-1.36% (inactive)
